- testTarget: DUSP3 (Homo sapiens, UniProt P51452)
- Sequence (P51452 whole entry, species assumed): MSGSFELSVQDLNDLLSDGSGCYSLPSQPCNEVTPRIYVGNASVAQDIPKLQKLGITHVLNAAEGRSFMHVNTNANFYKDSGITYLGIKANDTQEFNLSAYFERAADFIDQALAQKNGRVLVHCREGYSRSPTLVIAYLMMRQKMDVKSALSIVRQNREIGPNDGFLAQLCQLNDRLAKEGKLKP
measurementName: IC50

Summary line: CC(C)(C)C(=O)Nc1ccc2c(c1)C(=O)C(=O)c1ccccc1-2 [PTP inhibitor XIX] , DUSP3 (Homo sapiens, UniProt P51452), reported IC50 = > 50 µM

###

- testTarget: PTPN2 (Homo sapiens, UniProt P17706)
- Sequence (P17706 whole entry, species assumed): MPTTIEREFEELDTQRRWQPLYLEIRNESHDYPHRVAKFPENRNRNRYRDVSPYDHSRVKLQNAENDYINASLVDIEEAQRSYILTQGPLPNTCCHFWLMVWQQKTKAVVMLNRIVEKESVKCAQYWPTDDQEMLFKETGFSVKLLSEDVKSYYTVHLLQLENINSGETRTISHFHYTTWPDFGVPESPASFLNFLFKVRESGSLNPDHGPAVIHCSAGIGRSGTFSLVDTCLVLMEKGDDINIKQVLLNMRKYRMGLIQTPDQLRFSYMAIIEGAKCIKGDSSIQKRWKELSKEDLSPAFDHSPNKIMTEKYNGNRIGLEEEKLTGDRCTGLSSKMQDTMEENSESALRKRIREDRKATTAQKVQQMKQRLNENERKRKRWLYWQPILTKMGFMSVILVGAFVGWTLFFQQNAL
- assayDetails: Kinetic analysis
- Type: biochemical
measurementName: Ki
Number first, unit second: that is the form wanted.

Ki reported for this molecule CC(C)(C)C(=O)Nc1ccc2c(c1)C(=O)C(=O)c1ccccc1-2 : 760 nM

###

- testTarget: DUSP23 (Homo sapiens, UniProt Q9BVJ7)
- Sequence (Q9BVJ7 1-150): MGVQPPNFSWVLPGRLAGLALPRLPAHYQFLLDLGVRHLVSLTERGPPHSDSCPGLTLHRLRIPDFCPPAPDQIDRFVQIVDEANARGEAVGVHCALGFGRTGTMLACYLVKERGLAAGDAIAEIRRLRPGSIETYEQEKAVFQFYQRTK
pIC50: −log10 of the molar value.
measurementName: pIC50

Summary line: CC(C)(C)C(=O)Nc1ccc2c(c1)C(=O)C(=O)c1ccccc1-2 , DUSP23 (Homo sapiens, UniProt Q9BVJ7), reported pIC50 = < 4.30
